// provenance: patent US20230373985A1

Examples of compounds with documented pIC50 follow.
target: wt human JAK1, catalytic site (Homo sapiens, UniProt P23458); construct: wt human JAK1, catalytic site; test: HTRF KinEASE assay, JAK1; conditions: 2.5 μM ATP; read-out: IC50, Activity Toward JAK1
Sequence (P23458 875-1153 limits assumed): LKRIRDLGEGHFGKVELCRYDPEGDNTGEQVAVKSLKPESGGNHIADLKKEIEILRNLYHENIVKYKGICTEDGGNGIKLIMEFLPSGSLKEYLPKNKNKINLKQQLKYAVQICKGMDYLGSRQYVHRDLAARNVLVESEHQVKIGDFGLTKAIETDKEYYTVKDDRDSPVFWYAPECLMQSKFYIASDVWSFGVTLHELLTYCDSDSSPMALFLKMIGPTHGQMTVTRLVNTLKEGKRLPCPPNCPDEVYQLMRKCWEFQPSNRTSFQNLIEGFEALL
pIC50: −log10 of the molar value.

> print(dat)
                                   compound  measured.attribute      reported
1  CN1CCN(C(=O)c2cnc(Nc3cn(-c4c(Cl)cccc4Cl)nc3C(N)=O)cn2)CC1               pIC50  6.00 to 7.00
2  Cc1cccc2nnc(-c3ccc(Nc4cn(-c5c(Cl)cccc5Cl)nc4C(N)=O)cc3)n12               pIC50  7.00 to 8.00
3  NC(=O)c1nn(-c2c(Cl)cccc2Cl)cc1Nc1ccc(-c2nncn2C2CCCC2)cc1               pIC50  6.00 to 7.00
4  NC(=O)c1nn(-c2c(F)cccc2F)cc1Nc1ccc(C(=O)NCC(F)(F)F)cc1               pIC50  6.00 to 7.00
5  NC(=O)c1nn(-c2c(Cl)cccc2Cl)cc1Nc1ccc(C(=O)N2CCCC2)cc1               pIC50  7.00 to 8.00

# query: pIC50 of entry NC(=O)c1nn(-c2c(Cl)cc(F)cc2Cl)nc1Nc1ccc(C(=O)N2CCS(=O)(=O)CC2)cc1 > 8.00

# query: pIC50 of entry Cc1nnnn1-c1ccc(Nc2cn(-c3c(Cl)cccc3Cl)nc2C(N)=O)cc1 7.00 to 8.00

# query: pIC50 of entry CC(C)(C)NC(=O)c1ccc(Nc2cn(-c3c(F)cccc3Cl)nc2C(N)=O)cc1F 6.00 to 7.00

# query: pIC50 of entry CN1CCC(NC(=O)c2ccc(Nc3cn(-c4c(F)cccc4Cl)nc3C(N)=O)cc2)CC1 7.00 to 8.00

# query: pIC50 of entry CC(C)(C)OC(=O)N1CCCC(NC(=O)c2ccc(Nc3cn(-c4c(F)cccc4Cl)nc3C(N)=O)cc2)C1 (stereo not shown) 6.00 to 7.00
